B1: Osa-1-4 twister ribozyme (parent)
chain: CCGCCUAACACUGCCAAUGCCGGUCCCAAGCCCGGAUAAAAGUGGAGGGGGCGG

Variants of: B1
assay.procedure: self-cleavage, relative activity (ratio to wild type); higher = more cleavage; co-transcriptional
readout.kind: self-cleavage
Simply state the number, no unit and no words.

Would you please look over these solved cases?
| record.sequence | meas.value |
| --- | --- |
| CCGCCUAACACUGCCUAUUCCGGUCCCAAGCCCGGAUAAAAGUGGAGGGGGCGG [A16U G19U] | 0.26 |
| CCGCCUAACACUGCCAAUGCCGGUCAGAAGCCCGGAUAAAAGUGGAGGGGGCGG [C26A C27G] | 0.03 |
| CCGCCUAACACUGCCAAUGCGGGUCCCAAGCCCGGAUAAAAGUCGAGGGGGCGG [C21G G44C] | 0.08 |
| CCGCCUUACACUGCAAAUGCCGGUCCCAAGCCCGGAUAAAAGUGGAGGGGGCGG [A7U C15A] | 0.06 |
| CCGCCUUACACUGCUAAUGCCGGUCCCAAGCCCGGAUAAAAGUGGAGGGGGCGG [A7U C15U] | 0.06 |

Problem: Give self-cleavage for CCGCCUAACACUGCCAAUGCCGGCCCCAAGCCCGGAUUAAAGUGGAGGGGGCGG [A38U U24C]
Result: 0.25

Problem: Item CCGCCUAACACUGCCAAUGCCAGUCCCAAGCCCGGAUAAAAGUGGCGGGGGCGG [A46C G22A] : provide self-cleavage
Result: 0.06

Problem: Identify the reported self-cleavage for the following entry. CCGCCUAACACUGCCAAUGCCGGUCCCAAGCGCGGAUGAAAGUGGAGGGGGCGG [A38G C32G]
Result: 0.18

Problem: Return the recorded self-cleavage value; entry: CCGCCUAACACUGCCACUGCCGGUCCCAAGCCCGGAUAAAAGUGGAGUGGGCGG [A17C G48U]
Result: 0.03

Problem: Specify self-cleavage for CCGCCUAACACUGGCAAUGCCGGUCCCAACCCCGGAUAAAAGUGGAGGGGGCGG [C14G G30C] and stop.
Result: 0.64

Problem: For the variant CCGCCUAACUCUGCCAAGGCCGGUCCCAAGCCCGGAUAAAAGUGGAGGGGGCGG [A10U U18G] , give its measured self-cleavage value.
Result: 0.07

Problem: Please give measured self-cleavage of the following entry: CCGCCUAACACUCCCAAUGCCGGUCCCUAGCCCGGAUAAAAGUGGAGGGGGCGG [A28U G13C]
Result: 0.02

Problem: Assign self-cleavage to the following record: CCGCCUAACACUGCCAAUUCCGGUCCCAAGCCCGGAUGAAAGUGGAGGGGGCGG [A38G G19U]
Result: 0.14

Problem: State, in one line, measured self-cleavage of CCGCCUAACACUGCCAAUGCCGGUCCCAAACCCGGAUAAAAGUGCAGGGGGCGG [G30A G45C]
Result: 0.02

Problem: Complete the entry with self-cleavage for CCGCCUAACACUUCCAAUGCCGGUCCCAAGCCCGGAUAAAAGUGGAGGGGGUGG [C52U G13U]
Result: 0.05

Problem: Supply self-cleavage value. Item: CCGCCUAACACUGCCAAUGCCGGUCCCAAGCCCCGAUAAAAGUGGCGGGGGCGG [A46C G34C]
Result: 0.05

Problem: Return the recorded self-cleavage value; entry: CCGCCUAACACUUCCAAUGCCGGUCCCAUGCCCGGAUAAAAGUGGAGGGGGCGG [A29U G13U]
Result: 0.02

Problem: Provide self-cleavage value for the following variant: CCGCCUAACACUGCCAAUGCCCGUCCCAAGCCCGGAUAAAAGUGGCGGGGGCGG [A46C G22C]
Result: 0.03

Problem: Using the record for CCGCCUAACACUGCUAAUGCCGGUCCCAAGCCCGGAUAAAAGCGGAGGGGGCGG [C15U U43C] , state its measured self-cleavage.
Result: 0.09

Problem: Return self-cleavage for the following variant: CCGCCUAACACUGCCGAUGGCGGUCCCAAGCCCGGAUAAAAGUGGAGGGGGCGG [A16G C20G]
Result: 0.19

Problem: Indicate its recorded self-cleavage; the variant in question is CCGCCUAACACUGCCAAUGCCGGGCCCAAGCCCGUAUAAAAGUGGAGGGGGCGG [G35U U24G]
Result: 0.03

Problem: For CCGCCUAACACUGCCAAUGCCGGUCCCAAUCCCGGAUAAAAGUGGAGAGGGCGG [G30U G48A] , write its self-cleavage.
Result: 0.02

Problem: # return recorded self-cleavage for entry CCGCCUAACACUGCCAAUGCCGGUCCCAAGCCCGGAUUAAAGUGGAGGGGGCUG [A38U G53U]
Result: 0.27

Problem: Identify measured self-cleavage associated with CCGCCUAACACUGCUAAUGCCGGUCCCAAGCCCGGAUGAAAGUGGAGGGGGCGG [A38G C15U]
Result: 0.47

Problem: Give self-cleavage for the following variant: CCGCCUAAUACUGCCAAUGCCGGUCCCAAGCCCGGAUAAAAGUGGAAGGGGCGG [C9U G47A]
Result: 0.06

Problem: Please indicate self-cleavage recorded for CCGCCUAACACUGCCAAUGCCGGUCCCAAGCCCGGAUAAAAGGGCAGGGGGCGG [G45C U43G]
Result: 0.04

Provenance of the data: the RNAGym collection of RNA variant scans (doi:10.1002/anie.201605470)
